target: anti-A013 antibody (Thyroglobulin PET); test: peptide competition assay in 6% BSA
pIC50: −log10 of the molar value. Where no end group is shown, it is not given here.
assay_readout: pIC50

binder	assay_readout	data_value
Ac-ELAETGLELLC [A013 peptide (Thyroglobulin), Ac-…]	pIC50	8.10
